Measured viability, T/C, listed per entry.
System: 276233-004-R-J1-PDC KRAS spheroids with HUVEC/MSC, viability;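 note: cells exposed to agents for seven days before viability read; 100% = DMSO vehicle control wells and lower values mean fewer viable cells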
Test: Anticancer human tumor 276233-004-R-J1-PDC patient-derived colon adenocarcinoma cell line growth inhibition [KRAS2]
Settings: second compound 1 µM; first compound 1 µM; stronger effect = lower value
parameter measured: viability, T/C (%)

{"columns": ["compound", "observed value"],
 "data": [
  ["CC1(C)CCC(CN2CCN(c3ccc(C(=O)NS(=O)(=O)c4ccc(NCC5CCOCC5)c([N+](=O)[O-])c4)c(Oc4cnc5[nH]ccc5c4)c3)CC2)=C(c2ccc(Cl)cc2)C1 + C=CC(=O)N1CCN(c2nc(OCC3CCCN3C)nc3c2CCN(c2cccc4cccc(C)c24)C3)CC1CC#N", 100],
  ["CC1OCC2(CCN(c3cnc(Sc4ccnc(N)c4Cl)c(N)n3)CC2)C1N (stereo not given) + COc1cc2nc(C)nc(NC(C)c3cc(N)cc(C(F)(F)F)c3)c2cc1OC1CCOC1", 80.4],
  ["CC1OCC2(CCN(c3cnc(Sc4ccnc(N)c4Cl)c(N)n3)CC2)C1N (stereo not given) + CNCc1ccccc1-c1csc(C(C)Nc2nc(C)nc3cc(OC)c(OC)cc23)c1", 50],
  ["COC(=O)c1ccc2c(C(=Nc3ccc(N(C)C(=O)CN4CCN(C)CC4)cc3)c3ccccc3)c(O)[nH]c2c1 + CNCc1ccccc1-c1csc(C(C)Nc2nc(C)nc3cc(OC)c(OC)cc23)c1", 54.6],
  ["CCN1CCN(Cc2ccc(Nc3ncc(F)c(-c4cc(F)c5nc(C)n(C(C)C)c5c4)n3)nc2)CC1 + COc1cc2nc(C)nc(NC(C)c3cc(N)cc(C(F)(F)F)c3)c2cc1OC1CCOC1", 102],
  ["CCNC(=O)CC1N=C(c2ccc(Cl)cc2)c2cc(OC)ccc2-n2c(C)nnc21 (stereo not given) + COc1cc2nc(C)nc(NC(C)c3cc(N)cc(C(F)(F)F)c3)c2cc1OC1CCOC1", 42.7],
  ["Cn1nccc1Nc1nccc(-c2cc3c(s2)C(C)(C)N(CCN2CCOCC2)C3=O)n1 + CNCc1ccccc1-c1csc(C(C)Nc2nc(C)nc3cc(OC)c(OC)cc23)c1", 52.4],
  ["O=C(c1cc(Cc2n[nH]c(=O)c3ccccc23)ccc1F)N1CCN(C(=O)C2CC2)CC1 + COc1cc2nc(C)nc(NC(C)c3cc(N)cc(C(F)(F)F)c3)c2cc1OC1CCOC1", 89.2],
  ["CC(=O)OC12COC1CC(O)C1(C)C(=O)C(O)C3=C(C)C(OC(=O)C(O)C(NC(=O)OC(C)(C)C)c4ccccc4)CC(O)(C(OC(=O)c4ccccc4)C21)C3(C)C (stereo not given) + COc1cc2nc(C)nc(NC(C)c3cc(N)cc(C(F)(F)F)c3)c2cc1OC1CCOC1", 92.2],
  ["O=C(c1cc(Cc2n[nH]c(=O)c3ccccc23)ccc1F)N1CCN(C(=O)C2CC2)CC1 + C=CC(=O)N1CCN(c2nc(OCC3CCCN3C)nc3c2CCN(c2cccc4cccc(C)c24)C3)CC1CC#N", 87.6]
]}
